System: Yap1 mRNA
Test: Antisense inhibition of human Yap1 in A-431 cells by cEt gapmers, single dose (Example 4, RTS4814)
Format: cell-based
Conditions: Table 16; A-431 cells, 5,000 cells per well, free uptake, 2,000 nM, approximately 48 hours; RTS4814; normalized to RIBOGREEN; Yap1 mRNA relative to untreated control cells
Strand notation (5' to 3'): a small letter for the sugar, then the base; units joined by * are phosphorothioate-linked, units joined directly phosphodiester-linked; [ ] holds rarer units or linkages, { } end groups; capitals alone tell only the bases. k = constrained ethyl (cEt); [5mC] = 5-methylcytosine; d = 2'-deoxy (DNA)
experimental endpoint: YAP1 (% UTC)
Mention the unit after the number when you answer.

// solved cases for YAP1 (% UTC) follow
Given item 1075554 (kT*kT*kG*d[5mC]*dA*dA*dT*dA*dG*dT*d[5mC]*dA*d[5mC]*k[5mC]*k[5mC]*kA; antisense) [Compound 1075554] , the value recorded as its YAP1 (% UTC) is 56 % UTC

Given item 1074690 (antisense k[5mC]*k[5mC]*kT*d[5mC]*d[5mC]*d[5mC]*d[5mC]*d[5mC]*dT*dA*dA*dG*d[5mC]*kT*kA*kA) [Compound 1074690] , the value recorded as its YAP1 (% UTC) is 81 % UTC

Please turn your attention to the following entry.
Given item 1075490 (antisense k[5mC]*kA*kT*dA*dT*dA*d[5mC]*dG*d[5mC]*dA*dA*dT*dT*kA*kG*kT) [Compound 1075490] , the value recorded as its YAP1 (% UTC) is 27 % UTC

* * *

Assay: Tolerability in Balb/c mice, plasma chemistry markers (Example 10)
Format: in vivo
Settings: male Balb/c mice, 50 mg/kg subcutaneously twice a week for four weeks, day 26
Strand notation (5' to 3'): a small letter for the sugar, then the base; units joined by * are phosphorothioate-linked, units joined directly phosphodiester-linked; [ ] holds rarer units or linkages, { } end groups; capitals alone tell only the bases. k = constrained ethyl (cEt); [5mC] = 5-methylcytosine; d = 2'-deoxy (DNA)
experimental endpoint: ALT (U/L)

// solved cases for ALT (U/L) follow
Given item 715609 (kT*kG*kT*dG*dT*dA*dG*dG*d[5mC]*dT*dG*dA*d[5mC]*kT*kT*kA; antisense) [compound 715609] , the value recorded as its ALT (U/L) is 1120 U/L

Given item 715487 (kA*kT*kT*dA*d[5mC]*dT*dT*d[5mC]*dA*dT*dA*dG*d[5mC]*kT*kT*kA) [compound 715487] , the value recorded as its ALT (U/L) is 79 U/L

Given item 715593 (kA*kT*kT*dT*d[5mC]*dT*dT*dT*dG*dG*d[5mC]*dA*dG*kA*kG*kA; antisense) [compound 715593] , the value recorded as its ALT (U/L) is 628 U/L

Given item 715484 (kT*kA*k[5mC]*dT*d[5mC]*dT*dT*dT*dG*dG*dA*dA*dA*k[5mC]*k[5mC]*kA; antisense) [compound 715484] , the value recorded as its ALT (U/L) is 116 U/L

Given item 715582 (kG*kT*k[5mC]*dA*dA*dG*d[5mC]*d[5mC]*dT*dG*dT*d[5mC]*dT*kG*kG*kA; antisense) [compound 715582] , the value recorded as its ALT (U/L) is 2460 U/L

Please turn your attention to the following entry.
Given item 715557 (kG*kG*kA*dA*dG*dT*dT*dA*dT*dT*d[5mC]*dA*dG*k[5mC]*kA*kG; antisense) [compound 715557] , the value recorded as its ALT (U/L) is 1755 U/L
